- study target: BChE (Homo sapiens)

[
  {
    "compound": "O=C(NCCCCCC[P+](c1ccccc1)(c1ccccc1)c1ccccc1)c1ccc(O)c(O)c1 [AntiOxBEN1]",
    "Ki": "29.5 nM"
  }
]

* * *

- System: SH-SY5Y cells
- experiment notes: Neuroprotection against Aβ1–42 peptide-induced cytotoxicity (resazurin reduction)
- condition parameters: 10 μM pre-treatment 24 h, then Aβ1–42 25 μM 48 h
attribute measured: neuroprotective effect against Aβ1–42 peptide-induced cytotoxicity

[
  {
    "compound": "O=C(NCCCCCC[P+](c1ccccc1)(c1ccccc1)c1ccccc1)c1cc(O)c(O)c(O)c1 [AntiOxBEN2]",
    "observed value": "more evident"
  },
  {
    "compound": "O=C(NCCCCCCCCCC[P+](c1ccccc1)(c1ccccc1)c1ccccc1)c1ccc(O)c(O)c1.[Br-]",
    "observed value": "more evident"
  },
  {
    "compound": "O=C(NCCCCCCCC[P+](c1ccccc1)(c1ccccc1)c1ccccc1)c1cc(O)c(O)c(O)c1.[Br-]",
    "observed value": "more evident"
  }
]

* * *

- study target: BChE (Homo sapiens, UniProt P06276)
- Construct: purchased Sigma-Aldrich Química S. A
- Sequence (P06276 29-602, species assumed): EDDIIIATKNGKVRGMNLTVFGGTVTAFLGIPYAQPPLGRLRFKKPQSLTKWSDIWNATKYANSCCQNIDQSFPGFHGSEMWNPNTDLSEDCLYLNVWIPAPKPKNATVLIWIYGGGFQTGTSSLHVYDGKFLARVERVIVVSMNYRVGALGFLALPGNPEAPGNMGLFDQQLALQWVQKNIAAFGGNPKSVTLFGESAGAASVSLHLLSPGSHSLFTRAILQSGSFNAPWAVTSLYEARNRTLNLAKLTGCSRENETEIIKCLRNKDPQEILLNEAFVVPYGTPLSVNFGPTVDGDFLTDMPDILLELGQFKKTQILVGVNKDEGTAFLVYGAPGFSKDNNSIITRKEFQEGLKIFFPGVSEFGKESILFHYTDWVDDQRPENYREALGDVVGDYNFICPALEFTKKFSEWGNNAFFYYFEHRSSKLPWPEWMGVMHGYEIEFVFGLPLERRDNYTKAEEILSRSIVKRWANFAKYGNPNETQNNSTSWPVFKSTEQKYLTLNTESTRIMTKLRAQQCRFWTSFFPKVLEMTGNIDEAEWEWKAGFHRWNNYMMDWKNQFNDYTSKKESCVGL
- experiment notes: biochemical
- condition parameters: mean ± SD, triplicate, 30°C; read-out: IC50 BChE
Listed compounds paired with reported IC50

[
  {
    "compound": "O=C(NCCCCCC[P+](c1ccccc1)(c1ccccc1)c1ccccc1)c1ccc(O)c(O)c1 [AntiOxBEN1]",
    "IC50": "85 nM"
  },
  {
    "compound": "O=C(NCCCCCC[P+](c1ccccc1)(c1ccccc1)c1ccccc1)c1cc(O)c(O)c(O)c1 [AntiOxBEN2]",
    "IC50": "474 nM"
  }
]

* * *

- study target: BChE (Homo sapiens, UniProt P06276)
- Construct: purchased Sigma-Aldrich Química S. A
- experiment notes: biochemical
attribute measured: IC50 (nM)

[
  {
    "smiles input": "O=C(NCCCCCCCCCC[P+](c1ccccc1)(c1ccccc1)c1ccccc1)c1ccc(O)c(O)c1.[Br-]",
    "units": "nM",
    "observed value": 195
  },
  {
    "smiles input": "O=C(NCCCCCCCC[P+](c1ccccc1)(c1ccccc1)c1ccccc1)c1cc(O)c(O)c(O)c1.[Br-]",
    "units": "nM",
    "observed value": 255
  },
  {
    "smiles input": "O=C(NCCCCCCCC[P+](c1ccccc1)(c1ccccc1)c1ccccc1)c1ccc(O)c(O)c1.[Br-]",
    "units": "nM",
    "observed value": 106
  },
  {
    "smiles input": "O=C(NCCCCCCCCCC[P+](c1ccccc1)(c1ccccc1)c1ccccc1)c1cc(O)c(O)c(O)c1.[Br-]",
    "units": "nM",
    "observed value": 553
  }
]

* * *

Quick record of IC50 values for UniProt:O42275.
Sequence (O42275 24-633): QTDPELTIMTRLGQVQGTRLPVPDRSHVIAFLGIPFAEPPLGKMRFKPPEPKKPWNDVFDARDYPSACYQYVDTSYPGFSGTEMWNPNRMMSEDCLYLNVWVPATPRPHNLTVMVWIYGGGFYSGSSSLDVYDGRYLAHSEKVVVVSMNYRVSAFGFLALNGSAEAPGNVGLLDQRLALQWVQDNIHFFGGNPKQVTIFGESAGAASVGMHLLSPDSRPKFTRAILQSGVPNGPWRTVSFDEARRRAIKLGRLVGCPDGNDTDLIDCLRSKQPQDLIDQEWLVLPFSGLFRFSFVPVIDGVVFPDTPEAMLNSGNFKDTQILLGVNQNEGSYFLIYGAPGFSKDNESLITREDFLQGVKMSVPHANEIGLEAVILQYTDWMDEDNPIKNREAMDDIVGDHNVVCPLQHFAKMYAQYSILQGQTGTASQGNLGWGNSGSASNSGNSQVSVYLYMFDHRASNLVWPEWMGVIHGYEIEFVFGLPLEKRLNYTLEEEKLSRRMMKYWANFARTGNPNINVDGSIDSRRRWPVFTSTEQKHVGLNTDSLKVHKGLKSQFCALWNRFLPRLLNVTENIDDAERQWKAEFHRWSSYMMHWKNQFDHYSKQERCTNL
attribute measured: IC50

[
  {
    "compound": "O=C(NCCCCCCCCCC[P+](c1ccccc1)(c1ccccc1)c1ccccc1)c1ccc(O)c(O)c1.[Br-] [Compound 17]",
    "observed value": "7.7 µM"
  },
  {
    "compound": "O=C(NCCCCCC[P+](c1ccccc1)(c1ccccc1)c1ccccc1)c1cc(O)c(O)c(O)c1 [AntiOxBEN2]",
    "observed value": "40.5 µM"
  },
  {
    "compound": "O=C(NCCCCCCCC[P+](c1ccccc1)(c1ccccc1)c1ccccc1)c1ccc(O)c(O)c1.[Br-] [Compound 15]",
    "observed value": "11.2 µM"
  },
  {
    "compound": "O=C(NCCCCCCCC[P+](c1ccccc1)(c1ccccc1)c1ccccc1)c1cc(O)c(O)c(O)c1.[Br-] [Compound 16]",
    "observed value": "15.7 µM"
  },
  {
    "compound": "O=C(NCCCCCCCCCC[P+](c1ccccc1)(c1ccccc1)c1ccccc1)c1cc(O)c(O)c(O)c1.[Br-] [Compound 18]",
    "observed value": "7.2 µM"
  },
  {
    "compound": "O=C(NCCCCCC[P+](c1ccccc1)(c1ccccc1)c1ccccc1)c1ccc(O)c(O)c1 [AntiOxBEN1]",
    "observed value": "> 50 µM"
  }
]
